# assay-notes: Crossflow nanofiltration of ZIPGEM-pretreated water
# setup-conditions: ZIPGEM-nanofiltration @ 30 h, Col 1
metric-name: PFAS concentration, membrane permeates (MP)

The cases that follow already have their PFAS concentration, membrane permeates (MP) on record.
O=S(=O)(O)C(F)(F)C(F)(F)C(F)(F)C(F)(F)C(F)(F)C(F)(F)C(F)(F)C(F)(F)F    1.70 ng/L
O=C(O)C(F)(F)C(F)(F)C(F)(F)F    4.43 ng/L

Exercise: Would you kindly share the measured PFAS concentration, membrane permeates (MP) for O=C(O)C(F)(F)C(F)(F)C(F)(F)C(F)(F)C(F)(F)C(F)(F)C(F)(F)F ?
Solution: 21.67 ng/L

Exercise: Then what about the compound O=S(=O)(O)C(F)(F)C(F)(F)C(F)(F)C(F)(F)F ?
Solution: 4.67 ng/L

###

This listing pairs compounds with measured PFAS concentration, membrane permeates (MP).
# assay-notes: Crossflow nanofiltration of ZIPGEM-pretreated water
# setup-conditions: ZIPGEM-nanofiltration @ 30 h, Col 2
Write the value in ng/L as a bare number.

The cases that follow already have their PFAS concentration, membrane permeates (MP) on record.
O=C(O)C(F)(F)C(F)(F)C(F)(F)C(F)(F)C(F)(F)C(F)(F)C(F)(F)F [PFOA, Perfluorooctanoic acid]    14.00
O=S(=O)(O)C(F)(F)C(F)(F)C(F)(F)C(F)(F)F [PFBS, Perfluorobutanesulfonic acid]    4.23
O=C(O)C(F)(F)C(F)(F)C(F)(F)F [PFBA, Perfluorobutanoic acid]    4.77

Exercise: Would you kindly share the measured PFAS concentration, membrane permeates (MP) for O=S(=O)(O)C(F)(F)C(F)(F)C(F)(F)C(F)(F)C(F)(F)C(F)(F)C(F)(F)C(F)(F)F [PFOS, Perfluorooctanesulfonic acid] ?
Solution: 0.79

###

# assay-notes: Crossflow nanofiltration of CPS-pretreated water
# setup-conditions: CPS-nanofiltration @ 9 h, Col 2
# Method: The water samples were collected from the same site of the C-23 canal during both the dry and wet seasons. However, only wet season water samples were used in the experiment. The water samples were analyzed for both long-chain (PFOA and PFOS) and short-chain (Perfluorobutanoic acid [PFBA] and Perfluorobutanesulfonic acid [PFBS]) PFAS following the modified EPA 537.1 method (Shoemaker & Tettenhorst, 2020). […]
This listing pairs compounds with measured PFAS concentration, membrane permeates (MP).
Write the value in ng/L as a bare number.

The cases that follow already have their PFAS concentration, membrane permeates (MP) on record.
O=C(O)C(F)(F)C(F)(F)C(F)(F)C(F)(F)C(F)(F)C(F)(F)C(F)(F)F [PFOA, Perfluorooctanoic acid]    5.83
O=S(=O)(O)C(F)(F)C(F)(F)C(F)(F)C(F)(F)F [PFBS, Perfluorobutanesulfonic acid]    3.40
O=S(=O)(O)C(F)(F)C(F)(F)C(F)(F)C(F)(F)C(F)(F)C(F)(F)C(F)(F)C(F)(F)F [PFOS, Perfluorooctanesulfonic acid]    1.90

Exercise: Would you kindly share the measured PFAS concentration, membrane permeates (MP) for O=C(O)C(F)(F)C(F)(F)C(F)(F)F [PFBA, Perfluorobutanoic acid] ?
Solution: 4.17

###

This listing pairs compounds with measured PFAS concentration, membrane permeates (MP).
# assay-notes: Crossflow nanofiltration of ZIPGEM-pretreated water
# setup-conditions: ZIPGEM-nanofiltration @ 30 h, Col 3
Write the value in ng/L as a bare number.

O=C(O)C(F)(F)C(F)(F)C(F)(F)F    4.70
O=S(=O)(O)C(F)(F)C(F)(F)C(F)(F)C(F)(F)F    5.10
O=S(=O)(O)C(F)(F)C(F)(F)C(F)(F)C(F)(F)C(F)(F)C(F)(F)C(F)(F)C(F)(F)F    1.05

Exercise: Would you kindly share the measured PFAS concentration, membrane permeates (MP) for O=C(O)C(F)(F)C(F)(F)C(F)(F)C(F)(F)C(F)(F)C(F)(F)C(F)(F)F ?
Solution: 23.67

###

# assay-notes: Crossflow nanofiltration of CPS-pretreated water
# setup-conditions: CPS-nanofiltration @ 9 h, Col 3
# Method: The water samples were collected from the same site of the C-23 canal during both the dry and wet seasons. However, only wet season water samples were used in the experiment. The water samples were analyzed for both long-chain (PFOA and PFOS) and short-chain (Perfluorobutanoic acid [PFBA] and Perfluorobutanesulfonic acid [PFBS]) PFAS following the modified EPA 537.1 method (Shoemaker & Tettenhorst, 2020). […]
metric-name: PFAS concentration, membrane permeates (MP) (ng/L)
Write the value in ng/L as a bare number.

O=S(=O)(O)C(F)(F)C(F)(F)C(F)(F)C(F)(F)C(F)(F)C(F)(F)C(F)(F)C(F)(F)F    0.74
O=C(O)C(F)(F)C(F)(F)C(F)(F)F    3.60
O=C(O)C(F)(F)C(F)(F)C(F)(F)C(F)(F)C(F)(F)C(F)(F)C(F)(F)F    2.43

Turning now to a further molecule:
Exercise: Would you kindly share the measured PFAS concentration, membrane permeates (MP) for O=S(=O)(O)C(F)(F)C(F)(F)C(F)(F)C(F)(F)F ?
Solution: 2.67

###

# assay-notes: Fixed-bed column pretreatment of spiked C-23 canal water with ZIPGEM
# setup-conditions: ZIPGEM, triplicate columns
metric-name: average removal percentage by media
Give the figure only, with no unit attached.

Exercise: Would you kindly share the measured average removal percentage by media for O=C(O)C(F)(F)C(F)(F)C(F)(F)F [PFBA, Perfluorobutanoic acid] ?
Solution: 6

###

This listing pairs compounds with measured O = overall removal by water treatment system.
# assay-notes: Overall removal by CPS-nanofiltration water treatment system
# setup-conditions: column 3
Write the value in % as a bare number.

O=S(=O)(O)C(F)(F)C(F)(F)C(F)(F)C(F)(F)C(F)(F)C(F)(F)C(F)(F)C(F)(F)F    100
O=C(O)C(F)(F)C(F)(F)C(F)(F)F    53
O=S(=O)(O)C(F)(F)C(F)(F)C(F)(F)C(F)(F)F    52

Turning now to a further compound:
Exercise: Would you kindly share the measured O = overall removal by water treatment system for O=C(O)C(F)(F)C(F)(F)C(F)(F)C(F)(F)C(F)(F)C(F)(F)C(F)(F)F ?
Solution: 97

###

# assay-notes: Crossflow nanofiltration of CPS-pretreated water
# setup-conditions: CPS-nanofiltration @ 9 h, Col 1
metric-name: PFAS concentration, membrane permeates (MP) (ng/L)
Write the value in ng/L as a bare number.

The cases that follow already have their PFAS concentration, membrane permeates (MP) on record.
O=C(O)C(F)(F)C(F)(F)C(F)(F)C(F)(F)C(F)(F)C(F)(F)C(F)(F)F    2.27
O=C(O)C(F)(F)C(F)(F)C(F)(F)F    3.20
O=S(=O)(O)C(F)(F)C(F)(F)C(F)(F)C(F)(F)C(F)(F)C(F)(F)C(F)(F)C(F)(F)F    2.0

Turning now to a further compound:
Exercise: Would you kindly share the measured PFAS concentration, membrane permeates (MP) for O=S(=O)(O)C(F)(F)C(F)(F)C(F)(F)C(F)(F)F ?
Solution: 3.27

###

This listing pairs compounds with measured average removal percentage by media.
# assay-notes: Fixed-bed column pretreatment of spiked C-23 canal water with CPS
# setup-conditions: CPS, triplicate columns
Give the figure only, with no unit attached.

The cases that follow already have their average removal percentage by media on record.
O=S(=O)(O)C(F)(F)C(F)(F)C(F)(F)C(F)(F)F [PFBS, Perfluorobutanesulfonic acid]    24
O=C(O)C(F)(F)C(F)(F)C(F)(F)C(F)(F)C(F)(F)C(F)(F)C(F)(F)F [PFOA, Perfluorooctanoic acid]    90
O=C(O)C(F)(F)C(F)(F)C(F)(F)F [PFBA, Perfluorobutanoic acid]    25

Turning now to a further compound:
Exercise: Would you kindly share the measured average removal percentage by media for O=S(=O)(O)C(F)(F)C(F)(F)C(F)(F)C(F)(F)C(F)(F)C(F)(F)C(F)(F)C(F)(F)F [PFOS, Perfluorooctanesulfonic acid] ?
Solution: 100

###

# assay-notes: Fixed-bed column pretreatment of spiked C-23 canal water with ZIPGEM
# setup-conditions: ZIPGEM column 1, 30 h
# Procedure: The water samples were collected from the same site of the C-23 canal during both the dry and wet seasons. However, only wet season water samples were used in the experiment. The water samples were analyzed for both long-chain (PFOA and PFOS) and short-chain (Perfluorobutanoic acid [PFBA] and Perfluorobutanesulfonic acid [PFBS]) PFAS following the modified EPA 537.1 method (Shoemaker & Tettenhorst, 2020). […]
metric-name: Removal via column C1 (%)
Write the value in % as a bare number.

O=S(=O)(O)C(F)(F)C(F)(F)C(F)(F)C(F)(F)C(F)(F)C(F)(F)C(F)(F)C(F)(F)F    100
O=C(O)C(F)(F)C(F)(F)C(F)(F)F    5
O=S(=O)(O)C(F)(F)C(F)(F)C(F)(F)C(F)(F)F    6

Turning now to a further compound:
Exercise: Would you kindly share the measured Removal via column C1 for O=C(O)C(F)(F)C(F)(F)C(F)(F)C(F)(F)C(F)(F)C(F)(F)C(F)(F)F ?
Solution: 19
